Measured Oat, Wild plant response rating (0-100) of individual entries
# Tested on: oat, wild (wild oat, Avena fatua)
# Assay Summary: Test A postemergence application, visual injury rating 0-100
# Assay type: in vivo
# Condition Context: 62 g ai/ha, postemergence, 10 days, 0 = no effect, 100 = complete control

- Compound: "CC(C)COC(=O)C1=CCC(NC(=O)C2(C)CN(c3cc(Cl)cc(Cl)c3)C(=O)O2)C1 (centres unmarked)"
  Oat, Wild plant response rating (0-100): 0
- Compound: "CC1(C(=O)NC2CC=C(C(=O)OCC(F)(F)F)C2)CN(c2cc(Cl)cc(Cl)c2)C(=O)O1 (centres unmarked)"
  Oat, Wild plant response rating (0-100): 80
- Compound: "COC(=O)C1CC(NC(=O)C2(C)CN(c3cc(F)cc(F)c3)C(=O)O2)C1 (centres unmarked)"
  Oat, Wild plant response rating (0-100): 80
- Compound: "CC(C)COC(=O)C1=CCC(NC(=O)C2(C)CN(c3cc(F)cc(F)c3)C(=O)O2)C1 (centres unmarked)"
  Oat, Wild plant response rating (0-100): 0
- Compound: "CCOC(=O)C1=CCC(NC(=O)C2(C)CN(c3cc(F)cc(Cl)c3)C(=O)O2)C1 (centres unmarked)"
  Oat, Wild plant response rating (0-100): 70

----------
Let's look at some compounds and their measured Foxtail, Green plant response rating (0-100).
# System: green foxtail (Setaria viridis)
# Assay Summary: Test A postemergence application, visual injury rating 0-100
# Format: in vivo
# Condition Context: 31 g ai/ha, postemergence, 10 days, 0 = no effect, 100 = complete control
Readout Label: Foxtail, Green plant response rating (0-100)

- Compound: "COC(=O)C1=CCC(NC(=O)C2(C)CN(c3cc(F)cc(F)c3)C(=O)O2)C1 (stereo not shown)"
  Readout Value: 90
- Compound: "CC(C)COC(=O)C1C=CC(NC(=O)C2(C)CN(c3cc(F)cc(F)c3)C(=O)O2)C1 (stereo not shown)"
  Readout Value: 30
- Compound: "CC1(C(=O)NC2C=CC(C(=O)OCc3ccc(F)cc3)C2)CN(c2cc(F)cc(F)c2)C(=O)O1 (stereo not shown)"
  Readout Value: 40
- Compound: "CC(C)COC(=O)C1=CCC(NC(=O)C2(C)CN(c3cc(F)cc(F)c3)C(=O)O2)C1 (stereo not shown)"
  Readout Value: 90

----------
# Test system: ryegrass, Italian (italian ryegrass, Lolium multiflorum)
# Assay Summary: Test A preemergence soil spray, visual injury rating 0-100
# Assay type: in vivo
# Condition Context: 125 g ai/ha, 10 days, 0 = no effect, 100 = complete control
One threshold, 80, splits the recorded Ryegrass, Italian plant response rating (0 to 100 scale) values: lower ones are T, equal or higher ones are F.

- Compound: "CONC(=O)C1CC(NC(=O)C2(C)CN(c3cc(F)cc(F)c3)C(=O)O2)CO1 (centres unmarked)"
  Classification: "T"
- Compound: "CC1(C(=O)NC2C=CC(C(=O)NS(C)(=O)=O)C2)CN(c2cc(F)cc(F)c2)C(=O)O1 (centres unmarked)"
  Classification: "T"
- Compound: "COC(=O)C1C=CC(NC(=O)C2(C)CN(c3cc(Cl)cc(Cl)c3)C(=O)O2)C1 (centres unmarked)"
  Classification: "F"
- Compound: "COC(=O)C1=CCC(NC(=O)C2(C)CN(c3cc(F)cc(F)c3)C(=O)O2)C1 (single isomer, unassigned)"
  Classification: "T"
- Compound: "CONC(=O)C1C=CC(NC(=O)C2(C)CN(c3cc(F)cc(F)c3)C(=O)O2)C1 (centres unmarked)"
  Classification: "T"
- Compound: "COC(=O)COC(=O)C1C=CC(NC(=O)C2(C)CN(c3cc(Cl)cc(Cl)c3)C(=O)O2)C1 (centres unmarked)"
  Classification: "F"
- Compound: "CC1(C(=O)NC2C=CC(C(=O)OCC#N)C2)CN(c2cc(F)cc(F)c2)C(=O)O1 (centres unmarked)"
  Classification: "F"
- Compound: "COC(=O)C1C=CC(NC(=O)C2(C)CN(c3cc(F)cc(Cl)c3)C(=O)O2)C1 (centres unmarked)"
  Classification: "F"
- Compound: "CC(C)COC(=O)C1C=CC(NC(=O)C2(C)CN(c3cc(Cl)cc(Cl)c3)C(=O)O2)C1 (centres unmarked)"
  Classification: "F"
